# targetOrTestSystem: purified native human BChE (Homo sapiens, UniProt P06276)
# Construct: purified native human BChE; tissue gift of Dr Florian Nachon (IRBA, Brétigny-sur-Orge, France)
# Sequence (P06276 29-602): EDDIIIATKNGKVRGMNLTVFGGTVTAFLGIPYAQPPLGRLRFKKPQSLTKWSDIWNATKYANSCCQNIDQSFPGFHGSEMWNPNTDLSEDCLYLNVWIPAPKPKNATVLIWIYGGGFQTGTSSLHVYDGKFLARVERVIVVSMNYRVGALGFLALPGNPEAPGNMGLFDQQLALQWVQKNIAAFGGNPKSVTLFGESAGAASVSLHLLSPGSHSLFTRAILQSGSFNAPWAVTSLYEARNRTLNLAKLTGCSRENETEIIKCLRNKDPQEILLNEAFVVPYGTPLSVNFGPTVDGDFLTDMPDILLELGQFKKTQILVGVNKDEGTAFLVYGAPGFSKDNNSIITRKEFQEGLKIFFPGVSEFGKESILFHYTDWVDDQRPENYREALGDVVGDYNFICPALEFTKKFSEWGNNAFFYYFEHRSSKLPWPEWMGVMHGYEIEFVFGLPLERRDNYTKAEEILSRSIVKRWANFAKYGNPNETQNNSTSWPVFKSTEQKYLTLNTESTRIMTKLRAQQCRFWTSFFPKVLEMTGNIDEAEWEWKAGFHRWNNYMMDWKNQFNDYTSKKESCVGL
# assayProtocol: biochemical
# Format: biochemical
# measurementConditions: selectivity index
I'd be grateful if you could share measured SI = Ki(AChE)/Ki(BChE) for these entries.

Query block: SI = Ki(AChE)/Ki(BChE) for CC(C)(C)C1=CC(=O)C=C(SC2CCCC2)C1=O ?
Result block: 1.9

Query block: SI = Ki(AChE)/Ki(BChE) for CC(C)(C)C1=CC(=O)C(N2CCC[C@H]2C(=O)O)=CC1=O ?
Result block: 0.58

Query block: SI = Ki(AChE)/Ki(BChE) for COc1ccc(SC2=CC(=O)C=C(C(C)(C)C)C2=O)cc1 ?
Result block: 2.9

Query block: SI = Ki(AChE)/Ki(BChE) for CC(C)(C)C1=CC(=O)C(SC2CCCC2)=CC1=O ?
Result block: 5.6

Query block: SI = Ki(AChE)/Ki(BChE) for CC(C)(C)C1=CC(=O)C=C(N[C@@H](Cc2ccccc2)C(=O)O)C1=O ?
Result block: 1.7

----------
I'd be grateful if you could share measured inhibition at 50 µM for these entries.
# targetOrTestSystem: human recombinant β-secretase (BACE1) (Homo sapiens, UniProt P56817)
# Construct: purchased Sigma Aldrich, St. Louis, MO, USA S4195
# Sequence (P56817 46-501): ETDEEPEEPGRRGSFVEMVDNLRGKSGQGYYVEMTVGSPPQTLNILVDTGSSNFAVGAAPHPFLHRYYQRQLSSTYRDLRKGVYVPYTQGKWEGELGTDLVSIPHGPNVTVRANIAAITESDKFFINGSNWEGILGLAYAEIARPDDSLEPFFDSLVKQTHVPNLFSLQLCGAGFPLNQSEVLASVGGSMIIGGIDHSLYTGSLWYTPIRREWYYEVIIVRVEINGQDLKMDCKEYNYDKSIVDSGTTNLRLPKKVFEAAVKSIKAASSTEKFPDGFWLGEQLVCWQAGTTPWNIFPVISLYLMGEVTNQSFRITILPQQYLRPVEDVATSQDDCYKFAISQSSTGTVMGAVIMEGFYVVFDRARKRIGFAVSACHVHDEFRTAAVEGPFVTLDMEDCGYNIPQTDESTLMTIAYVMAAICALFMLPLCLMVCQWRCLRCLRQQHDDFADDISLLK
# assayProtocol: Inhibition of BACE1 (spectrofluorimetric method)
# Type: biochemical
# measurementConditions: 50 μM compound; three independent measurements ± SD
The response must be a number in % with no trailing unit.

Query block: inhibition at 50 µM for CC(C)(C)C1=CC(=O)C(SCCO)=CC1=O [Compound 3] ?
Result block: 5.7

Query block: inhibition at 50 µM for CC(C)(C)C1=CC(=O)C=C(Sc2ccc3ccccc3c2)C1=O [Compound 10] ?
Result block: 26.2

Query block: inhibition at 50 µM for CC(C)(C)C1=CC(=O)C(SC2CCCC2)=CC1=O [Compound 5] ?
Result block: 11

----------
I'd be grateful if you could share measured pKi for these entries.
# targetOrTestSystem: purified native human BChE (Homo sapiens)
# Construct: purified native human BChE; tissue gift of Dr Florian Nachon (IRBA, Brétigny-sur-Orge, France)
# assayProtocol: biochemical
# Type: biochemical
# measurementConditions: read-out: BChE Ki
Quick note: pKi means taking -log10 of the concentration in moles per liter.

Query block: pKi for COc1ccc(SC2=CC(=O)C=C(C(C)(C)C)C2=O)cc1 ?
Result block: 4.54

Query block: pKi for CC(C)(C)C1=CC(=O)C=C(Sc2ccc3ccccc3c2)C1=O ?
Result block: 4.43

Query block: pKi for CC(C)(C)C1=CC(=O)C=C(SCCc2ccccc2)C1=O ?
Result block: 4.60

Query block: pKi for CC(C)(C)C1=CC(=O)C=C(SCCO)C1=O ?
Result block: 4.48

Query block: pKi for CC(C)(C)C1=CC(=O)C=C(Sc2ccccc2)C1=O ?
Result block: 4.74
